Assay: Phase 1 DDI study 004 part A: lemborexant plasma PK with/without rifampin
Format: in vivo, human
Settings: human, plasma, AUC0‐t, Mean (SD), lemborexant 10 mg + rifampin 600 mg
Readout label: AUC (ng·h/mL)
Just the number in ng·h/mL, nothing appended.

Query string: Provide only the value of recorded AUC for Cc1ncc(OC[C@@]2(c3cccc(F)c3)C[C@H]2C(=O)Nc2ccc(F)cn2)c(C)n1 [Lemborexant]
Result string: 13.5

====

Assay: Phase 1 DDI study 004 part A: lemborexant plasma PK with/without itraconazole
Assay type: in vivo, human
Conditions: human, plasma, 10 mg, AUC0‐inf, Mean (SD), lemborexant 10 mg alone, itraconazole cohort
Readout label: AUC (µg·h/mL)
I only need the number, in µg·h/mL, no unit after it.

Query string: Name the recorded AUC of the compound listed here: Cc1ncc(OC[C@@]2(c3cccc(F)c3)C[C@H]2C(=O)Nc2ccc(F)cn2)c(C)n1 [Lemborexant]
Result string: 0.464
